protocol-notes: Selectivity index, ratio of IC50 for mouse J774.1 cells to IC50 for Trypanosoma cruzi Sylvio X-10 amastigotes
Type: toxicity
test-conditions: read-out: Ratio IC50
observation-type: selectivity ratio

// known answers, use as guide
[
  {
    "compound": "Br.C=CCn1c(-c2ccccc2)cs\\c1=N/N=C/C=C/c1ccco1.O",
    "selectivity ratio": "> 120"
  },
  {
    "compound": "Br.C=CCn1c(-c2ccc(Cl)cc2)cs\\c1=N/N=C/C=C/c1ccco1.O",
    "selectivity ratio": "> 200"
  },
  {
    "compound": "CC1CS(=O)(=O)CCN1/N=C/c1ccc([N+](=O)[O-])o1 (centres undefined)",
    "selectivity ratio": 200
  }
]

Pending compound:
I am curious: what selectivity ratio value has been reported for `Br.C=CCn1c(-c2ccc3ccccc3c2)cs\c1=N/N=C/C=C/c1ccco1` ?
> 120

----------
System: Trypanosoma cruzi
protocol-notes: Antitrypanosomal activity against Trypanosoma cruzi Tulahuen 2 epimastigotes assessed as growth inhibition after 5 days
Type: functional, organism-based
test-conditions: Trypanosoma cruzi, Tulahuen 2, 120 h
observation-type: IC50

Sample records with IC50:
[
  {
    "molecule": "C=CCn1c(C)cs\\c1=N/N=C/C=C/c1ccccc1",
    "IC50": "> 25 µM"
  },
  {
    "molecule": "Br.C=CCn1c(-c2ccc([N+](=O)[O-])cc2)cs\\c1=N/N=C/C=C/c1ccco1",
    "IC50": "> 25 µM"
  },
  {
    "molecule": "C=CCNC(=S)N/N=C/C=C/c1ccc([N+](=O)[O-])s1",
    "IC50": "1.2 µM"
  }
]

Name the reported IC50 value associated with the molecule `C=CCN1C(=O)CS\C1=N/N=C\C=C\C=C\c1cccs1`
> 25 µM

I have this molecule here, `C=CCn1c(-c2ccc(Br)cc2)cs\c1=N/N=C/C=C/c1cccs1` , and I need its recorded IC50.
> 25 µM

----------
Tested on: Trypanosoma cruzi
protocol-notes: Antitrypanosomal activity against Trypanosoma cruzi Tulahuen 2 epimastigotes assessed as growth inhibition after 5 days
Assay type: functional, organism-based
test-conditions: Trypanosoma cruzi, Tulahuen 2, 120 h
observation-type: IC50

Before answering, review these 6 worked examples.
[
  {
    "molecule-smiles": "C=CCn1c(-c2ccc(OC)cc2)cs\\c1=N/N=C/C=C/c1ccco1",
    "IC50": "4.9 µM"
  },
  {
    "molecule-smiles": "S=C(N/N=C/c1cccs1)Nc1ccccc1",
    "IC50": "4.7 µM"
  },
  {
    "molecule-smiles": "C=CCn1c(C)cs/c1=N\\N=C\\c1ccc(S(=O)(=O)O)o1",
    "IC50": "> 25 µM"
  },
  {
    "molecule-smiles": "O=C1CS/C(=N\\N=C\\c2ccc([N+](=O)[O-])s2)N1",
    "IC50": "> 25 µM"
  },
  {
    "molecule-smiles": "C=CCn1c(-c2ccccc2)cs/c1=N/N=C/c1cccs1",
    "IC50": "> 25 µM"
  },
  {
    "molecule-smiles": "N/C(S)=N/N=C/c1ccc([N+](=O)[O-])s1",
    "IC50": "25 µM"
  }
]

// switching to the query compound
Look up IC50 with Trypanosoma cruzi for this compound: `C=CCn1c(C)cs/c1=N/N=C/C=C/c1ccco1`
> 25 µM

----------
Quick reference for pIC50 among some compounds
Test system: Trypanosoma cruzi
protocol-notes: Antitrypanosomal activity against Trypanosoma cruzi Tulahuen 2 epimastigotes assessed as growth inhibition after 5 days
Format: functional, organism-based
test-conditions: Trypanosoma cruzi, Tulahuen 2, 120 h
In textbook form, pIC50 equals minus log to base ten of the concentration in mol/L.

See these solved cases before continuing.
[
  {
    "compound": "C=CCN1C(=O)CS\\C1=N/N=C/C=C/c1cccs1",
    "pIC50": 4.70
  },
  {
    "compound": "O=C1CS/C(=N\\N=C\\c2ccc([N+](=O)[O-])s2)N1c1ccccc1 (stereo in doubt; 10)",
    "pIC50": 4.89
  }
]

Here is another compound to look at.
What does the data say about its pIC50? Entry: `Cc1cs/c(=N/N=C/C=C/c2ccco2)n1-c1ccccc1`
4.60

----------
Test system: Trypanosoma cruzi
protocol-notes: Antitrypanosomal activity against Trypanosoma cruzi Tulahuen 2 epimastigotes assessed as growth inhibition after 5 days
Assay type: functional, organism-based
test-conditions: Trypanosoma cruzi, Tulahuen 2, 120 h
pIC50: −log10 of the molar value.
observation-type: pIC50

Return reported pIC50; argument: `C=CCn1c(-c2ccc(Cl)cc2)cs\c1=N/N=C/C=C/c1cccs1`
< 4.60

----------
The reader will find reported IC50 values listed item by item below.
Tested on: Trypanosoma cruzi
protocol-notes: Antitrypanosomal activity against Trypanosoma cruzi Tulahuen 2 epimastigotes assessed as growth inhibition after 5 days
Type: functional, organism-based
test-conditions: Trypanosoma cruzi, Tulahuen 2, 120 h

[
  {
    "molecule-smiles": "C=CCn1c(-c2ccc(Cl)cc2)cs/c1=N\\N=C\\c1ccc(Cl)cc1",
    "study-target": "Trypanosoma cruzi",
    "IC50": "> 25 µM"
  }
]

Fill in: IC50 of `C=CCn1c(C)cs/c1=N\N=C\c1ccco1` is ___
> 25 µM

Sample `Cc1cs/c(=N\N=C\c2cccs2)n1-c1ccccc1` — what was its IC50?
> 25 µM

----------
Tested on: Trypanosoma cruzi
protocol-notes: Antitrypanosomal activity against Trypanosoma cruzi Tulahuen 2 epimastigotes assessed as growth inhibition after 5 days
Type: functional, organism-based
test-conditions: Trypanosoma cruzi, Tulahuen 2, 120 h
pIC50: −log10 of the molar value.
observation-type: pIC50

Bench note: what pIC50 did `C=CCNC(=S)N/N=C/C=C/C=C/c1cccs1` show?
6.22

# lookup: pIC50 of `Br.C=CCn1c(-c2ccccc2)cs\c1=N/N=C/C=C/c1ccco1.O`
5.49

Any idea what pIC50 was measured for `C=CCn1c(-c2ccccc2)cs\c1=N/N=C/C=C/c1cccs1` ?
< 4.60

----------
Test system: Trypanosoma cruzi
protocol-notes: Antitrypanosomal activity against Trypanosoma cruzi Tulahuen 2 epimastigotes assessed as growth inhibition after 5 days
Format: functional, organism-based
test-conditions: Trypanosoma cruzi, Tulahuen 2, 120 h
observation-type: IC50

[
  {
    "molecule-smiles": "C=CCn1c(C)cs\\c1=N/N=C/C=C/c1cccs1",
    "study-target": "Trypanosoma cruzi",
    "observation-type": "IC50",
    "test-value": "> 25 µM"
  },
  {
    "molecule-smiles": "C=CCn1c(-c2ccc([N+](=O)[O-])cc2)cs\\c1=N/N=C/C=C/c1cccs1",
    "study-target": "Trypanosoma cruzi",
    "observation-type": "IC50",
    "test-value": "> 25 µM"
  }
]

Pending compound:
Which IC50 value is on record for `C=CCn1c(C)cs/c1=N\N=C\c1cccs1` ?
> 25 µM
